Experiment: NCI Yeast Anticancer Drug Screen. Data for the sgs1 mgt1 strain (AID 161)
Conditions: S. cerevisiae sgs1 mgt1 strain, at 50.0 µM (retest, dose inferred, filed as 5.0)
This is part of a sample that, as a whole, favours compounds with a hit. Of some 79,000 tested, about 15% had one in any assay. Calls of active or inactive are those of the source. Rule as the data show it: active = growth inhibition above about 70%; inactive = the rest.
Outcome codes: Yes for active, No for inactive

- CC(=O)ON=C1C=CC(=C(C#N)c2ccc(Cl)cc2)C=C1: Yes
- COc1cc2ccnc(-c3c4ccccc4c(N)c4c(OC)c(OC)ccc34)c2cc1OC: No
- N#CC(=Nc1ccccc1F)Nc1ccccc1F: No
- O=C1C(=O)c2ccccc2C(O)=C1C(C1=C(O)c2ccccc2C(=O)C1=O)c1ccc(Cl)cc1: No
- C=C1CC(CCCl)(c2ccccc2)OC1=O (configuration not stated): Yes
- Oc1ccc(SCc2ccc(NCc3ccccc3)cc2)cc1: No
- Nc1ncc(-c2ccc(Br)cc2)s1: Yes
- COc1ccc(/C=C/c2sc3ccccc3[n+]2CCCCI)cc1OC: No
- CCOC(=O)C1N=[N+](c2ccccc2)C(=O)/C1=C\n1c(=S)[nH]c2ccc([N+](=O)[O-])cc21 (configuration not stated): No
- Cc1c(C)c(C)c(CSC(=N)N)c(C)c1C: Yes
- CN(C)CCCCN1c2ccccc2Sc2ccc(N=[N+]=[N-])cc21: Yes
- O=C(O)CNC(=S)Nc1ccccc1: Yes
- CCN(CC)CCNc1ccc([N+](=O)[O-])c2nc3ccccc3c(N)c12: No
- CCOc1c(N=Nc2ccccc2OC)c(C)nn1C(=S)S: No
- COc1cc(/C=C2\CCC/C(=C\c3ccc(O)c(OC)c3)C2=O)ccc1O: No
- COC(=O)/C=C(/CC(=O)OC)C(=O)OC: No
- CCCCCCCCCCCCCCCCCC(=O)NCCCN(C)C: Yes
- Cc1cc(=O)oc2c(C)c3occc(=O)c3cc12: No
- Cc1ccc(Cl)cc1NC(=O)OCCN(C)C(=O)Nc1cc(Cl)ccc1C: No
- Cc1ccc(S/C(=C\C(=O)O)c2ccccc2)cc1: No
- CC(C)CN(CC(C)C)C(=O)c1ccc(Cl)c(Cl)c1: Yes
- COC(=O)CC1(O)C(/C=C/c2ccccc2)C(C(=O)OC)C(=O)C(C(=O)OC)C1C(=O)OC (configuration not stated): No
- CC1CC[C@]2(C(=O)O)CCC3(C)C(=CC(=O)C4[C@@]5(C)CCC(=O)C(C)(C)C5CC[C@]43C)[C@@H]2[C@H]1C (some centres not stated): Yes
- OCc1ccccc1Cc1ccccc1: No
- CC(C)/C(Cl)=N\OC(=O)Nc1ccc(F)cc1F: No
- NNC(=O)CCc1cc2ccccc2c2ccccc12: Yes
- S=c1sc2c(s1)SCCS2: No
- CN(C)C=NC1CCC(C(C)(C)C)CC1 (configuration not stated): Yes
- CCCC(=O)Oc1c(C)cc([N+](=O)[O-])cc1[N+](=O)[O-]: Yes
- O/N=C\c1c(O)ccc2ccccc12: Yes
- Cc1c2ccnc(C(=O)NCCN(C)C)c2cc2c3cc(O)ccc3n(C)c12: No
- CCCCC(CC)C(=O)[O][Sn]([CH2]CCC)([CH2]CCC)[O]C(=O)C(CC)CCCC (configuration not stated): Yes
- CCOC1(c2cccc([N+](=O)[O-])c2)c2ccccc2Oc2ccccc21: No
- Cc1ccccc1N=C(NO)c1ccccc1: No
- CN(C)CCNc1ccc2ncnc3c2c1C(=O)c1ccccc1-3: No
- CN(CCN(C)Cc1ccccc1)Cc1ccccc1: No
- Cc1cc(S(=O)(=O)Nc2nnc3cnc4ccccc4n23)c(S)cc1Cl: No
- CC(C)(CCCCC(C)(C)[N+](C)(C)C)[N+](C)(C)C: No
- Nc1nc2ccc(NCc3ccc(C(=O)NC(CCC(=O)O)C(=O)O)cc3)cc2c(=O)[nH]1 (configuration not stated): No
- CCCCCCSc1ncnc2[nH]ncc12: No
- O=C(CC(C(=O)O)N1CCOCC1)c1ccccc1 (configuration not stated): No
- CCOc1ccc(NC(=O)C2=C(C)NC(C)=C(C(=O)Nc3ccc(OCC)cc3)C2c2cccc([N+](=O)[O-])c2)cc1: No
- C[Si](C)(C)/C=C/CCNC(C#N)c1ccccc1 (configuration not stated): Yes
- O=C(O)CCCC1CCCc2c1ccc1ccccc21 (configuration not stated): Yes
- Cc1ccc2nc(-c3cccc([N+](=O)[O-])c3)oc(=O)c2c1: No
- CNC(=O)OCc1c(COC(=O)NC)c(-c2ccc(Cl)c(Cl)c2)n2c1SCC2: No
- O=[N+]([O-])/C=C/c1cc(Cl)c(/C=C/[N+](=O)[O-])cc1Cl: Yes
